target: PLK1 (Homo sapiens)
Sequence (P53350 whole entry): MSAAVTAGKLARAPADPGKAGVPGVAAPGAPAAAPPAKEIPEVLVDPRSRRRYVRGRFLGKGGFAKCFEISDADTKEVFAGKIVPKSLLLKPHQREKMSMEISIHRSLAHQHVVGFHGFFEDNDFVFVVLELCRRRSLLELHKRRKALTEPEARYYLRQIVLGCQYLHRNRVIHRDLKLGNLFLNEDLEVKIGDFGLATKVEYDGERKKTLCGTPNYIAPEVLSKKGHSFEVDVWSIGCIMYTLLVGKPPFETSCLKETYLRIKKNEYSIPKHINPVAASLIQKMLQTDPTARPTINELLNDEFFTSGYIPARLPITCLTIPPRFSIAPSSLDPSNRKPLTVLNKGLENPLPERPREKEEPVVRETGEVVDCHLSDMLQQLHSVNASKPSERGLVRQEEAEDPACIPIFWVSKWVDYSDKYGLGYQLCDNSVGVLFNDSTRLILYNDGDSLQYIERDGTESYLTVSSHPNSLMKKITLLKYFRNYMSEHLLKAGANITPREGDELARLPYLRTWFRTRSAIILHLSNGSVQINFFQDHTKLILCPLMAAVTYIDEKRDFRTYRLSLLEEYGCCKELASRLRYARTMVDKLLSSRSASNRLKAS
EXPERIMENTAL_ENDPOINT: IC50

| MOLECULE | EXPERIMENTAL_ENDPOINT | RESULT |
| --- | --- | --- |
| C=CCn1c(=O)c2cnc(Nc3ccc(N4CCN(C)CC4)cc3)nc2n1-c1cccc(C(C)(C)O)n1 [AZD1775] | IC50 | 22 to 34 nM |
